Reference source: patent US4443475A

What LD50 was measured for each of the following?
- TEST: Acute toxicity (LD50), Weil method
- MEASUREMENT_CONTEXT: mouse, in vivo; oral, mice (Table I title); read-out: LD50 oral
Give bare numbers, in mg/kg.

> print(dat)
                                   molecule  measure  test.value
1  COC(=O)C(CC(C)C)NC(=O)CC(C[N+](C)(C)C)OC(C)=O (stereo not drawn)     LD50        3500
2  COC(=O)C(NC(=O)CC(C[N+](C)(C)C)OC(C)=O)C(C)C (stereo not drawn)     LD50        2400
3  CCC(C)C(NC(=O)CC(C[N+](C)(C)C)OC(C)=O)C(=O)OC (stereo not drawn)     LD50        1200
4  CCC(=O)OC(CC(=O)NC(C(=O)OC)C(C)C)C[N+](C)(C)C (stereo not drawn)     LD50        1350
5  COC(=O)CCC(NC(=O)CC(C[N+](C)(C)C)OC(C)=O)C(=O)OC (stereo not drawn)     LD50        3600
6  CCC(=O)OC(CC(=O)NC(C(=O)OC)C(C)CC)C[N+](C)(C)C (stereo not drawn)     LD50        2500
7  CCCC(=O)OC(CC(=O)NCCS(=O)(=O)[O-])C[N+](C)(C)C (stereo not drawn)     LD50        4000
8  CCOC(=O)CC(O)CNC(=O)CC(C[N+](C)(C)C)OC(C)=O (stereo not drawn)     LD50        1300

Turning now to a further molecule:
Ask | Field request: LD50 | item: CCC(=O)OC(CC(=O)NC(CCC(=O)OC)C(=O)OC)C[N+](C)(C)C (stereo not drawn)
Reply | 1200

====

- TEST: Acute toxicity (LD50), Weil method
- MEASUREMENT_CONTEXT: mouse, in vivo, ip, mice (Table I title); read-out: LD50 i.p.
Threshold 1000 mg/kg. LD50 below it: YES. LD50 at it or above: NO.

Would you please look over these solved cases?
COMPOUND	LABEL_CLASS
CCC(=O)OC(CC(=O)NC(CC(C)C)C(=O)OC)C[N+](C)(C)C (centres unmarked)	YES
CCOC(=O)CC(O)CNC(=O)CC(C[N+](C)(C)C)OC(C)=O (centres unmarked)	YES
COC(=O)C(NC(=O)CC(C[N+](C)(C)C)OC(C)=O)C(C)C (centres unmarked)	YES
CCC(=O)OC(CC(=O)NC(CCC(=O)OC)C(=O)OC)C[N+](C)(C)C (centres unmarked)	YES

Ask | Decide: LD50 of CCC(C)C(NC(=O)CC(C[N+](C)(C)C)OC(C)=O)C(=O)OC (centres unmarked) strictly below 1000 mg/kg?
Reply | YES

Ask | Decide: LD50 of CCC(=O)OC(CC(=O)NC(CC(=O)OC)C(=O)OC)C[N+](C)(C)C (centres unmarked) strictly below 1000 mg/kg?
Reply | YES

Ask | Decide: LD50 of CCCC(=O)OC(CC(=O)NCCS(=O)(=O)[O-])C[N+](C)(C)C (centres unmarked) strictly below 1000 mg/kg?
Reply | NO

Ask | Decide: LD50 of CC(=O)OC(CC(=O)NCCS(=O)(=O)[O-])C[N+](C)(C)C (centres unmarked) [COCH3; 2-sulfonyl ethyl amino, acetyl carnitine amide with taurine] strictly below 1000 mg/kg?
Reply | NO

Ask | Decide: LD50 of CCC(=O)OC(CC(=O)NC(C(=O)OC)C(C)CC)C[N+](C)(C)C (centres unmarked) strictly below 1000 mg/kg?
Reply | YES

Ask | Decide: LD50 of CCC(=O)OC(CC(=O)NC(C(=O)OC)C(C)C)C[N+](C)(C)C (centres unmarked) strictly below 1000 mg/kg?
Reply | YES

Ask | Decide: LD50 of COC(=O)CC(NC(=O)CC(C[N+](C)(C)C)OC(C)=O)C(=O)OC (centres unmarked) strictly below 1000 mg/kg?
Reply | NO

Ask | Decide: LD50 of CCC(=O)OC(CC(=O)NCCS(=O)(=O)[O-])C[N+](C)(C)C (centres unmarked) strictly below 1000 mg/kg?
Reply | NO
